System: esterase
assay notes: Degradation by porcine liver esterase
Type: in vitro ADME
condition notes: pig, porcine liver esterase
endpoint: half-life (min)
Numeric only. Scale: min

Query string: Which measured half-life value corresponds to CC(=O)OCCCC1=C(N2CC2)C(=O)C(C)=C(N2CC2)C1=O [Es5] ?
Result string: 1

====

Test system: MDA468
assay notes: IC50 by MTT assay on MDA468 cells
Assay type: cell-based, human
condition notes: listed as Es5 (4.65)
endpoint: IC50

Query string: Which measured IC50 value corresponds to CC(=O)OCCCC1=C(N2CC2)C(=O)C(C)=C(N2CC2)C1=O ?
Result string: 0.02 to 0.025 µM

====

assay notes: physchem
Format: physicochemical
condition notes: buffer, pH 7.4
// values below are reported half-life at 50 μM

Query string: Which measured half-life at 50 μM value corresponds to CC(=O)OCCCC1=C(N2CC2)C(=O)C(C)=C(N2CC2)C1=O ?
Result string: > 24 h

Query string: Which measured half-life at 50 μM value corresponds to CC1=C(N2CC2)C(=O)C(CCCO)=C(N2CC2)C1=O ?
Result string: > 24 h

====

Test system: serum esterase
assay notes: Degradation by serum esterase (hydrolysis in serum)
Format: in vitro ADME
condition notes: serum; read-out: hydrolysis in serum, t1/2
endpoint: half-life (h)
Numeric only. Scale: h

Query string: Which measured half-life value corresponds to CC(=O)OCCCC1=C(N2CC2)C(=O)C(C)=C(N2CC2)C1=O ?
Result string: 1.67

====

assay notes: physchem
Assay type: physicochemical
condition notes: buffer, pH 7
endpoint: half-life at 50 μM

CC1=C(N2CC2)C(=O)C(CCCO)=C(N2CC2)C1=O :: > 24 h

// switching to the query compound
Query string: Which measured half-life at 50 μM value corresponds to CC(=O)OCCCC1=C(N2CC2)C(=O)C(C)=C(N2CC2)C1=O ?
Result string: > 24 h

====

Tested on: esterases
assay notes: Cell lysate esterase reaction, MDA NQ01 cell extract
Type: in vitro ADME, human
condition notes: human, MDA NQ01 cell line extract (cell lysate), room temperature, degraded to the alcohol 4.61; read-out: half-life in MDA NQ01 cell line extract
endpoint: half-life

Query string: Which measured half-life value corresponds to CC(=O)OCCCC1=C(N2CC2)C(=O)C(C)=C(N2CC2)C1=O ?
Result string: ~2.67 h

The values you see were collected from patent US9266829B2.
